system: L7Ae (Pyrococcus furiosus, UniProt Q8U160 1-123)
run description: EMSA; EMSA: annealed in 10 mM Tris-HCl, 100 mM NaCl, 1 mM EDTA, pH 7.5; 4 C, 10% native PAGE; 10 pmol Cy5-RNA (~2 uM) or 0.5 nmol unlabeled RNA. RNP: 20 mM Na phospha
attribute measured: Kd

INSERT INTO assay_data (binder, experimental_value) VALUES
  ('UACUAGAUUGGUCUCUUUCAAGAAGGGGCUAAUUGAUGA (structured_RNA) [snR51-kl1]', '< 141 nM');
